# reported EC50; entries follow
# ASSAY_TARGET: NiVB-G (Nipah virus, strain Bangladesh)

Example entries begin here.
[
  {
    "BINDER": "HENV-103 (antibody, V domains shown) VH: QVQLQGSGPGLVKPSQTLSLTCSVSGGSVSRSGYYWGWIRQHPGKGLECIGYIYYSGITYYNPSLSGRLTISVDTSKNQFSLELSSVTAADTAVYYCARVWLGGGVFDFWGQGSLVTVSS VL: EIVMTQSPATLSVSPGEGATLSCRASQSVSSNLAWYQQKPGQAPRLLIYDASTRATGIPARFSGSGSGTEFTLTISSLQSEDFAVYYCQQYNDWRTFGRGTKVEMR",
    "EC50": "1.34 nM"
  },
  {
    "BINDER": "HENV-117 (antibody, V domains shown) VH: QVQLQQWGAGLLKPSETLSLTCDLSGGSFTNYYWTWIRHLPGKGLEWLGEINHSGRTNYSPSLKSRVTISVDTSKNQFSLRLSSVTAADTAVYYCARDIRKLAPKPHSYDLYYGMDVWGQGTTVTVSS VL: EIVLTQSPGTLSLSPGERATLSCRASQSVGSNYLTWYQQKPGQPPRLLIYGASNRAAGIPDRFSGSGSGTDFTLTISRLEPEDFAVYYCQQYETSSRTFGQGTKVDIR",
    "EC50": "1.2 nM"
  },
  {
    "BINDER": "HENV-99 (antibody, V domains shown) VH: QVLLVQSGAEVRKPGASVKVSCRASGYTFTDYYMHWVRQAPGQGLEWMGWINPNSGATKYAQKFQGRVTLTRDTSINTAYMELSGLRSVDTAVFYCASVPPSGFFYWGSDYWGQGTLVTVSS VL: DVVLTQSPLSLPVTLGQPASISCRSSQSLVYSDGTTYLNWFQQRPGQSPRRLIYKVSYRDSGVPDRFSGSGSGTDFTLEISRVEAEDVGIYYCMHGTHWETWTFGQGTKVEIK",
    "EC50": "1.16 nM"
  },
  {
    "BINDER": "HENV-142 (antibody, V domains shown) VH: QVRLQESGPRLVKPSQTLSLTCTVSGGSISSRDYYWSWIRQHPGKGLEWIGYIYYSGTTYYNPSLESRVTLSLDTSKNQFSLDLTSVTAADTAVYHCARVWLGGGVFDFWGQGTLVTVSA VL: EIVMTQSPDTLSVSPGERATLSCRASHSVTTNLAWYQQRPGQAPRLLIFDASTRATGIPARFSGSGSGTEFTLTIGSLQSEDFAVYYCQQYNDGRTFGQGTKVEIK",
    "EC50": "13 nM"
  }
]

Could you now consider this next binder?
Prompt line: Kindly indicate its recorded EC50. Item: HENV-242 (antibody, V domains shown) VH: QVQLVQSGAEVKKPGSSVTVSCKTSGGTFSGYAVSWVRQAPGQGLEWMGRIVPQFNIPNYAQKFQDRVTITADESTGTSYMELSSLRSDDTAVFYCARENIQTIFGVVAMMGGGGYFDSWGQGTLVTVSS VL: DIQMTQSPSSLSASVGDRVTITCQANQDINTYLNWYLQKPGKAPQLLVFDASNLVTGVPSRFSGGGSRTDFTLTIDSLQPEDIGTYYCQQYDHLPRRTFTFGPGTKVDLK
Response line: 7.67 nM
